# run-description: physchem
# condition-parameters: 25 °C, pH 2, aqueous buffer, thermodynamic from solid
assay-metric: solubility (µg/mL)
One number for each entry, in µg/mL.

Query: Could you share which solubility value was measured for CNc1nc(C)c(-c2nc(Nc3cccc(S(N)(=O)=O)c3)ncc2F)s1.O=C(O)C(O)C(O)C(=O)O [Tartrate] ?
Response: 4300
